Target: Baculoviral IAP repeat-containing protein 2 (Homo sapiens)
Sequence (Q13490 whole entry, the tested form may be a part): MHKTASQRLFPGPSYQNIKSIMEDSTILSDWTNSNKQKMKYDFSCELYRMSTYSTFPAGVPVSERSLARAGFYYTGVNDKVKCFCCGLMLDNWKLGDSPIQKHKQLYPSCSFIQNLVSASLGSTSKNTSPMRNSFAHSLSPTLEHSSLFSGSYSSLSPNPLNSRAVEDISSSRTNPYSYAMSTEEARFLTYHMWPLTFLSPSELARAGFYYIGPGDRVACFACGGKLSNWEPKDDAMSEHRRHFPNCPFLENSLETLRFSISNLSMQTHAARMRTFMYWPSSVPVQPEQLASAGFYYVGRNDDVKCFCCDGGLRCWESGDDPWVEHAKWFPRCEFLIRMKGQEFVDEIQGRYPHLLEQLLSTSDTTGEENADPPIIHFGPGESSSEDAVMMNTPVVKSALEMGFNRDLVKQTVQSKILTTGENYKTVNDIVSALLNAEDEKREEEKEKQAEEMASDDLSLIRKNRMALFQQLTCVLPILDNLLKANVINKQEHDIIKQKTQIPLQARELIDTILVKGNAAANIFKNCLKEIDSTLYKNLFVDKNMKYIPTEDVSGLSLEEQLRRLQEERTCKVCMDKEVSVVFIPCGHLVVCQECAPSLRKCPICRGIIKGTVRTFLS
Assay: Inhibition of His-thrombin-TEV-tagged cIAP1 BIR2 domain (174 to 256) (unknown origin) after 1 hr by TR-FRET assay
valueType: pIC50
One number for each entry, as −log10 of the molar value.

Fill blank: measured pIC50 of the compound CN[C@@H](C)C(=O)N[C@@H]1C(=O)N(Cc2c(C#N)n(-c3ccccc3C#N)c3ccccc23)c2ccccc2OC12CCOCC2.Cl is ____.
6.57

* * *

Target: E3 ubiquitin-protein ligase XIAP (Homo sapiens, UniProt P98170)
Sequence (P98170 whole entry): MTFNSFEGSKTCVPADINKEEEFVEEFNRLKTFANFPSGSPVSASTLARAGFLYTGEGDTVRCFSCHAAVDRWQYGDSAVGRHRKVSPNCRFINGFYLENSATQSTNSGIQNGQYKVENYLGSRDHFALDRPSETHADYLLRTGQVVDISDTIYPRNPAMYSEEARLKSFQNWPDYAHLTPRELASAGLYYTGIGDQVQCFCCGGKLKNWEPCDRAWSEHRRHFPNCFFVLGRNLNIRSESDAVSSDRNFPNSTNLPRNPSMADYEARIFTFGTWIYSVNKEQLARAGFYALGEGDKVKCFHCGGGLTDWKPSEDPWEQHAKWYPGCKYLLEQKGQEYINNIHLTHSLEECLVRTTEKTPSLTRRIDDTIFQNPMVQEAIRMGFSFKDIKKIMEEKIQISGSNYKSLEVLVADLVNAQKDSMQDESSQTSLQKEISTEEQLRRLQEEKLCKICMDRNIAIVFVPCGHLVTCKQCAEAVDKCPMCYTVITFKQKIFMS
valueType: pIC50
Answers are plain numbers, as −log10 of the molar value.

Fill blank: measured pIC50 of the compound C[C@H](N)C(=O)N[C@@H]1C(=O)N(C)CCc2ccccc21 is ____.
4.84

* * *

Test: Half life in mouse at 1 mg/kg, iv
Type: ADME, organism-based
Design: dose 1 mg/kg, route intravenous
Conditions: in vivo
valueType: half-life (h)
Answers are plain numbers, in h.

Fill blank: measured half-life of the compound CN[C@@H](C)C(=O)N[C@@H]1C(=O)N(Cc2c(C#N)n(-c3ccccc3C#N)c3ccccc23)c2ccccc2OC12CCOCC2.Cl is ____.
6.9

* * *

Experiment: AUC in mouse at 10 mg/kg, po
Assay type: ADME, organism-based
Parameters: dose 10 mg/kg, route oral
Settings: plasma
valueType: AUC (µg·h/mL)
Give bare numbers, in µg·h/mL.

Fill blank: measured AUC of the molecule CN[C@@H](C)C(=O)N[C@@H]1C(=O)N(Cc2c(C#N)n(-c3ccccc3C#N)c3ccccc23)c2ccccc2OC12CCOCC2.Cl is ____.
2.86

* * *

Assay: Oral bioavailability in mouse at 10 mg/kg
Format: ADME, organism-based
Details: in vivo
valueType: bioavailability (%)
Answers are plain numbers, in %.

Fill blank: measured bioavailability of the molecule CN[C@@H](C)C(=O)N[C@@H]1C(=O)N(Cc2c(C#N)n(-c3ccccc3C#N)c3ccccc23)c2ccccc2OC12CCOCC2.Cl is ____.
53

* * *

Assay: Cmax in mouse at 10 mg/kg, po
Assay type: ADME, organism-based
Design: dose 10 mg/kg, route oral
Details: in vivo
valueType: Cmax

Fill blank: measured Cmax of the compound CN[C@@H](C)C(=O)N[C@@H]1C(=O)N(Cc2c(C#N)n(-c3ccccc3C#N)c3ccccc23)c2ccccc2OC12CCOCC2.Cl is ____.
647 ng/mL

* * *

Molecular target: Baculoviral IAP repeat-containing protein 2 (Homo sapiens)
Experiment: Inhibition of His-thrombin-TEV-tagged cIAP1 BIR3 domain (260 to 352) (unknown origin) after 1 hr by TR-FRET assay
valueType: IC50

Give Baculoviral IAP repeat-containing protein 2 (Homo sapiens) IC50 for CN[C@@H](C)C(=O)N[C@@H]1C(=O)N(Cc2c(C#N)n(-c3ccccc3C#N)c3ccccc23)c2ccccc2OC12CCOCC2.Cl
> 55 µM

* * *

Experiment: Half life in mouse at 10 mg/kg, po
Type: ADME, organism-based
Set-up: dose 10 mg/kg, route oral
Details: in vivo
valueType: half-life (h)
Numbers only, in h.

Fill blank: measured half-life of the compound CN[C@@H](C)C(=O)N[C@@H]1C(=O)N(Cc2c(C#N)n(-c3ccccc3C#N)c3ccccc23)c2ccccc2OC12CCOCC2.Cl is ____.
5

* * *

Experiment: Clearance in mouse at 1 mg/kg, iv
Type: ADME, organism-based
Set-up: dose 1 mg/kg, route intravenous
Conditions: in vivo
valueType: clearance (mL/min/kg)
Numbers only, in mL/min/kg.

Fill blank: measured clearance of the compound CN[C@@H](C)C(=O)N[C@@H]1C(=O)N(Cc2c(C#N)n(-c3ccccc3C#N)c3ccccc23)c2ccccc2OC12CCOCC2.Cl is ____.
33

* * *

Assay: Clearance in rat at 2 mg/kg, iv
Type: ADME, organism-based
Set-up: dose 2 mg/kg, route intravenous
Conditions: in vivo
valueType: clearance (mL/min/kg)
Numbers only, in mL/min/kg.

Fill blank: measured clearance of the compound CN[C@@H](C)C(=O)N[C@H]1CCc2ccccc2N(Cc2c(OC)ccc3cc(Br)ccc23)C1=O.Cl is ____.
116
